Target: human CSE (cystathionine γ-lyase) (Homo sapiens, UniProt P32929)
Sequence (P32929 whole entry): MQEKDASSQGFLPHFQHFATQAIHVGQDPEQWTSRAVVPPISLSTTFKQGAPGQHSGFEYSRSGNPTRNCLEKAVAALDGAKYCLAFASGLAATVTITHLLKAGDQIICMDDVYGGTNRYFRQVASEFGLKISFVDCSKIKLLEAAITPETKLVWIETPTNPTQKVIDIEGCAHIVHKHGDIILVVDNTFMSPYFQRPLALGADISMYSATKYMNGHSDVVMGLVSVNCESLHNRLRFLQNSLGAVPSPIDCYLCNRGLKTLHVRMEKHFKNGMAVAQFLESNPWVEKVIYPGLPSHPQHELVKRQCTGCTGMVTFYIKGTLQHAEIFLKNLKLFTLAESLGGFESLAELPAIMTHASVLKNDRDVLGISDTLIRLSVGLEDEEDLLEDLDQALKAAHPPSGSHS
Test: lead acetate assay of H2S production from cysteine
Type: biochemical
Parameters: 6xHis (TEV-cleavable) (N, cleaved yes); made in house; host or cells: E. coli One Shot BL-21 Star (DE3)
Conditions: 1–10 mM cysteine, 100 mM HEPES pH 7.4, 37 °C; read-out: Kic (dissociation constant for competitive inhibition), H2S biogenesis from Cys
reported-property: Ki (mM)

compound="CC(C)(S)[C@@H](N)C(=O)O [D-pen, D-penicillamine]" readout_value=1.82

----------
Target: UniProt:P32929
Test: biochemical
pKi: −log10 of the molar value.
reported-property: pKi

molecule="CC(C)(S)[C@@H](N)C(=O)O [D-pen, D-penicillamine]" readout_value=2.60

----------
Target: human CSE (cystathionine γ-lyase) (Homo sapiens, UniProt P32929)
Assay: lead acetate assay of H2S production from cysteine
Conditions: 1 mM Cys, 200 mM HEPES pH 7.4, 37 °C, no pre-incubation with enzyme; read-out: IC50 towards H2S production
pIC50: −log10 of the molar value.
reported-property: pIC50

chemical_smiles=CC(C)(S)[C@@H](N)C(=O)O reported_property=pIC50 readout_value=2.69

Where do the numbers come from? From paper PMC10160035.
